// data source = the supplement of paper PMC7156485

- Test system: HCC1569;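 also: TDF is a line of transformed human dermal fibroblasts of mesenchymal origin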
- Protocol notes: H1.0 immunofluorescence intensity relative to DMSO (% of DMSO); higher = stronger H1.0 induction, active = 140 or more
- Assay conditions: concentration: 10 µM; 24 h
Recorded metric: H1.0 immunofluorescence intensity
Keep it simple and answer with nothing but the number.

# lookup: HCC1569 H1.0 immunofluorescence intensity, key = COc1ccc2c(c1)c(CC(=O)O)c(C)n2Cc1ccc(Cl)cc1 [1-(4-Chlorobenzyl)-5-methoxy-2-methylindole-3-acetic acid]
103

Name the value of H1.0 immunofluorescence intensity reported for CC(OC(=O)c1ccc(F)cc1F)C(=O)N(C)C1CCS(=O)(=O)C1 (stereo unspecified) [Cdk2/9 Inhibitor] when tested on HCC1569.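 Also: TDF is a line of transformed human dermal fibroblasts of mesenchymal origin.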
139

Enter measured H1.0 immunofluorescence intensity, system HCC1569, for the molecule shown: CCCCCCCCCCCCCCCC(=O)NCCc1ccc(O)c(O)c1 [Palmitoyl dopamine];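 also: TDF is a line of transformed human dermal fibroblasts of mesenchymal origin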
105

Give the observed H1.0 immunofluorescence intensity of Cl.NO [Hydroxylamine hydrochloride] for HCC1569.
89.7

Look up HCC1569 data: H1.0 immunofluorescence intensity of CCCCCC=CCC=CCC(O)C=CC=CCCCC(=O)O (stereo unspecified) , then report it.
101

Enter measured H1.0 immunofluorescence intensity, system HCC1569, for the molecule shown: CC#CCOC(=O)c1c(C)nc2sc3c(c2c1N)CCC(O)C3 (stereo unspecified);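 also: TDF is a line of transformed human dermal fibroblasts of mesenchymal origin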
134
